Target: Neuropilin-1 (Homo sapiens)
Experiment: NRP-1 b1b2 CendR peptide binding inhibitors, dose response, biochemical, FP and AlphaScreen panel (AID 651650)
Settings: NRP-1 b1b2 / RPARPAR peptide binding, FP or AlphaScreen; AlphaScreen, mean of runs
Active and inactive are the calls of the source.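 The calls were made as follows: active = mean IC50 below 20 µM in each of the two panels, so potent in both; inactive = the rest.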
Entry note: the call must match one of 1 = active, 0 = inactive

>  <COMPOUND>
COc1cccc(OCCNC(=O)Nc2cc(F)c(F)cc2Cl)c1

>  <DISCRETE_LABEL>
0

$$$$
>  <COMPOUND>
CN(C(=O)COC(=O)c1cnc(Cl)c(Cl)c1)C1CCCCC1

>  <DISCRETE_LABEL>
0

$$$$
>  <COMPOUND>
Cc1cccc(NS(=O)(=O)c2cccs2)c1

>  <DISCRETE_LABEL>
0

$$$$
>  <COMPOUND>
O=C(NCCCN1CCOCC1)c1ccc2c(=O)n(-c3ccc(F)c(Cl)c3)c(=S)[nH]c2c1

>  <DISCRETE_LABEL>
0

$$$$
>  <COMPOUND>
CC(=O)Oc1cc2c(c3ccccc13)CCC2=O

>  <DISCRETE_LABEL>
0

$$$$
>  <COMPOUND>
COC(=O)[C@@]1(Cc2ccc(OC)cc2)[C@H]2c3cc(C(=O)N4CCCC4)n(CCN4CCOCC4)c3C[C@H]2CN1C(=O)c1ccccc1

>  <DISCRETE_LABEL>
0

$$$$
>  <COMPOUND>
O=C(NC1CC1)c1ccc(COc2ccc(F)cc2)o1

>  <DISCRETE_LABEL>
0

$$$$
>  <COMPOUND>
O=C1C=CC(=O)C2C1C1(Cl)C(Cl)=C(Cl)C2(Cl)C1(Cl)Cl (configuration not stated)

>  <DISCRETE_LABEL>
0

$$$$
>  <COMPOUND>
CCOC(=O)Cn1c(=O)n(Cc2ccco2)c(=O)c2ccc(C(=O)NC3CCCC3)cc21

>  <DISCRETE_LABEL>
0

$$$$
>  <COMPOUND>
CC(C)(C)n1cnc2cc(NC(=O)c3ccccc3)ccc21

>  <DISCRETE_LABEL>
1

$$$$

Now look at this entry.
Record request — test call for O=[N+]([O-])c1ccc(-n2nnnc2CN2CCCCC2)cc1
0

---

Target: UniProt:O14786
Assay: NRP-1 b1b2 CendR peptide binding inhibitors, dose response, biochemical, FP and AlphaScreen panel (AID 651650)
Settings: NRP-1 b1b2 / RPARPAR peptide binding, FP or AlphaScreen; AlphaScreen, mean of runs
Activity calls are given as the source filed them.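 How the source made its calls: active means mean IC50 below 20 µM in each of the two panels, so potent in both; inactive means the rest.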
Entry note: the call must match one of 1 (yes) (active), 0 (no) (inactive)

>  <MOLECULE>
CCOc1ccc(S(=O)(=O)NNC(=O)c2cc3ccccc3o2)cc1

>  <DISCRETE_LABEL>
0 (no)

$$$$
>  <MOLECULE>
O=c1c2ccccc2nc2n1C(CSc1ccc(F)cc1)CS2 (stereo unspecified)

>  <DISCRETE_LABEL>
1 (yes)

$$$$
>  <MOLECULE>
CC1(C)CN=C(Nc2ccc(F)c(Cl)c2)S1

>  <DISCRETE_LABEL>
1 (yes)

$$$$

Record request — test call for Cc1cc(C)cc(N(CCC(=O)O)S(=O)(=O)c2ccc3ccccc3c2)c1
0 (no)

---

Target: Neuropilin-1 (Homo sapiens)
Test: NRP-1 b1b2 CendR peptide binding inhibitors, dose response, biochemical, FP and AlphaScreen panel (AID 651650)
Settings: NRP-1 b1b2 / RPARPAR peptide binding, FP or AlphaScreen; AlphaScreen, mean of runs
Activity calls are given as the source filed them.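 The calls were made as follows: active = mean IC50 below 20 µM in each of the two panels, so potent in both; inactive = the rest.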
Entry note: the call must match one of active, inactive

Record request — test call for Nc1ncnc2[nH]c(=S)[nH]c12
inactive

Record request — test call for COc1ccc(C(CNc2ccc(S(=O)(=O)N3CCCC3)cc2[N+](=O)[O-])N2CCCC2)cc1 (centres undefined)
active

Record request — test call for Cc1cn([C@H]2C[C@H](O)[C@@H](CCC(=O)NCCc3ccc4ccccc4c3)O2)c(=O)[nH]c1=O
inactive

Record request — test call for CCc1cc(C(=O)OC)c(NC(=O)c2ccoc2C)s1
inactive

---

Molecular target: Neuropilin-1 (Homo sapiens)
Experiment: NRP-1 b1b2 CendR peptide binding inhibitors, dose response, biochemical, FP and AlphaScreen panel (AID 651650)
Conditions: NRP-1 b1b2 / RPARPAR peptide binding, FP or AlphaScreen; AlphaScreen, run 1; individual panel run IC50
Could you please report measured IC50 for the items listed next?

Illustrative cases are given below, each with its answer.
>  <COMPOUND>
CCOc1ccc(C2CC(c3ccc(CC)cc3)n3nc(N)nc3N2)cc1 (centres undefined)

>  <IC50>
> 100 µM

$$$$
>  <COMPOUND>
O=C(COc1cc(Cl)c(Cl)cc1Cl)Nc1ccc([N+](=O)[O-])cc1Cl

>  <IC50>
> 100 µM

$$$$
>  <COMPOUND>
CN1C(=O)c2oc3ccccc3c(=O)c2C1c1ccccn1 (centres undefined)

>  <IC50>
34.9 µM

$$$$
>  <COMPOUND>
CC(C)OC(=O)CSc1nnc(-c2ccccn2)n1-c1ccccc1

>  <IC50>
> 100 µM

$$$$

Fill in IC50 for each of the 2 compounds listed.
1. Cc1ccccc1NC(=O)c1cccc(NC(=O)CCC(=O)O)c1
2. CSc1ncccc1C(=O)OCC(=O)NC1CCCCC1

1: > 100 µM; 2: > 100 µM

Fill in IC50 for each of the 3 compounds listed.
1. CCc1ccc(C2CC(=O)N(c3cccc(F)c3)C3=C2C(=O)OC3)cc1 (centres undefined)
2. C=C(C)C1CC=C(C)/C(=N\NC(=O)CNc2ccccc2OC)C1 (centres undefined)
3. O=C(Cn1cccc1C(=O)c1ccccc1)NCCC1=CCCCC1

1. > 100 µM
2. > 100 µM
3. 7.12 µM

---

Biological target: Neuropilin-1 (Homo sapiens)
Test: NRP-1 b1b2 CendR peptide binding inhibitors, dose response, biochemical, FP and AlphaScreen panel (AID 651650)
Details: NRP-1 b1b2 / RPARPAR peptide binding, FP or AlphaScreen; AlphaScreen, run 1; individual panel run IC50
QUANTITY_NAME: pIC50
Answers are plain numbers, as −log10 of the molar value.

>  <CHEM_SMILES>
CC1CCN(C(=O)c2[nH]cnc2C(=O)NCc2ccc(CNC(=O)OC(C)(C)C)cc2)CC1

>  <pIC50>
4.89

$$$$
>  <CHEM_SMILES>
Cc1ccc(C(=O)N/C(=C\c2sccc2C)C(=O)NCc2ccco2)cc1

>  <pIC50>
4.04

$$$$
>  <CHEM_SMILES>
COc1ccc(Nc2nc(-c3cccnc3)nc3ccccc23)cn1

>  <pIC50>
4.26

$$$$
>  <CHEM_SMILES>
CC(=O)OC[C@@H]1CN(Cc2cccc(C(F)(F)F)c2)C[C@H](n2cnc3c(NCc4ccco4)ncnc32)O1

>  <pIC50>
4.06

$$$$
>  <CHEM_SMILES>
COc1cc(C(=O)Nc2cc3c(cc2N2CCCCC2)n(C)c(=O)n3C)cc(OC)c1OC

>  <pIC50>
4.07

$$$$

Please examine the following record next.
Given C[C@@H](NC(=O)c1[nH]cnc1C(=O)Nc1cccc(Cl)c1)c1ccccc1 , state its recorded pIC50.
4.66

---

Molecular target: Neuropilin-1 (Homo sapiens)
Assay: NRP-1 b1b2 CendR peptide binding inhibitors, dose response, biochemical, FP and AlphaScreen panel (AID 651650)
Conditions: NRP-1 b1b2 / RPARPAR peptide binding, FP or AlphaScreen; AlphaScreen, run 1; individual panel run IC50
pIC50: −log10 of the molar value.
QUANTITY_NAME: pIC50

Illustrative cases are given below, each with its answer.
>  <CHEM_SMILES>
O=C(OCn1nnc2ccccc2c1=O)c1ccc(Br)o1

>  <ASSAYED_SYSTEM>
Neuropilin-1 (Homo sapiens)

>  <QUANTITY_NAME>
pIC50

>  <RESULT>
< 4.00

$$$$
>  <CHEM_SMILES>
CN(C(=O)COC(=O)c1cnc(Cl)c(Cl)c1)C1CCCCC1

>  <ASSAYED_SYSTEM>
Neuropilin-1 (Homo sapiens)

>  <QUANTITY_NAME>
pIC50

>  <RESULT>
< 4.00

$$$$
>  <CHEM_SMILES>
Cc1cc(NC(=O)CCC(=O)NNC(=O)c2ccc(C(C)(C)C)cc2)no1

>  <ASSAYED_SYSTEM>
Neuropilin-1 (Homo sapiens)

>  <QUANTITY_NAME>
pIC50

>  <RESULT>
5.06

$$$$

Please examine the following record next.
Request: pIC50, test system Neuropilin-1 (Homo sapiens), entry O=[N+]([O-])c1cc(-c2csc(NCCc3nc4cc(C(F)(F)F)ccc4n3CCCO)n2)ccc1Cl
< 4.00

---

Target: Neuropilin-1 (Homo sapiens) (UniProt O14786)
Sequence (O14786 whole entry, looked up): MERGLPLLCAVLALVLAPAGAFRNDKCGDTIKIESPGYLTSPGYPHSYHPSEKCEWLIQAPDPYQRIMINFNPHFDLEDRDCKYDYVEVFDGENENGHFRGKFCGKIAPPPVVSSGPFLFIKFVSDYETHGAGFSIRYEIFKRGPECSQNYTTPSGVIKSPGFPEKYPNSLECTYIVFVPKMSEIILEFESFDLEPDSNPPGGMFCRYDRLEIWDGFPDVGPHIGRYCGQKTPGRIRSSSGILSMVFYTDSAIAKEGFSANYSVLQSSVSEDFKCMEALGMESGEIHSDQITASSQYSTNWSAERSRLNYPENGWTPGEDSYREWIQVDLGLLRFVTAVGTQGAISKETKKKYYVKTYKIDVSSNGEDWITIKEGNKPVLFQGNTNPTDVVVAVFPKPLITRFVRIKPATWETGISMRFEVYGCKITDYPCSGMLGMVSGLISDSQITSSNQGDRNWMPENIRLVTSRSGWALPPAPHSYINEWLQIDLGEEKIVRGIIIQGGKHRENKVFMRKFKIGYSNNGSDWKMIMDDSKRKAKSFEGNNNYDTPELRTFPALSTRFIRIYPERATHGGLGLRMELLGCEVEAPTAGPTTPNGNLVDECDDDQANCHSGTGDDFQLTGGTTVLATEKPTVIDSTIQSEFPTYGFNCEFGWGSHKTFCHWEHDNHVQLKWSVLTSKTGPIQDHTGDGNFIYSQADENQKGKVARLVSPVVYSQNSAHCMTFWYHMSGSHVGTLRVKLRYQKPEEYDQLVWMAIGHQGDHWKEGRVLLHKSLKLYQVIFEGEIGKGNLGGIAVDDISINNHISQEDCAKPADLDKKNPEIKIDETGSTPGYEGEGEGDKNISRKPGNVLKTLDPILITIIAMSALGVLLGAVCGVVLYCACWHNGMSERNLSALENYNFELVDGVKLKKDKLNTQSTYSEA
Experiment: NRP-1 b1b2 CendR peptide binding inhibitors, dose response, biochemical, FP and AlphaScreen panel (AID 651650)
Details: NRP-1 b1b2 / RPARPAR peptide binding, FP or AlphaScreen; AlphaScreen, mean of runs
Active and inactive are the calls of the source.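 How the source made its calls: active means mean IC50 below 20 µM in each of the two panels, so potent in both; inactive means the rest.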
Entry note: the call must match one of y for active, n for inactive

Some solved cases for reference:
>  <COMPOUND>
Cc1ccccc1Oc1ccc2c(c1)[C@@H]1C[C@H](N(C)C(=O)Nc3cc(Cl)cc(Cl)c3)[C@H]([C@H](C)O)C(=O)N1CC2

>  <DISCRETE_LABEL>
y

$$$$
>  <COMPOUND>
COc1ccc(NC(=O)CN(C)CC(=O)Nc2cccc(F)c2)cc1Cl

>  <DISCRETE_LABEL>
n

$$$$
>  <COMPOUND>
CCOCCCNC(=O)C(c1ccc(C)cc1)N(Cc1cccs1)C(=O)c1ccccc1O (stereo not given)

>  <DISCRETE_LABEL>
n

$$$$
>  <COMPOUND>
Cc1ccccc1S(=O)(=O)Nc1nc2ccccc2nc1NCCO

>  <DISCRETE_LABEL>
n

$$$$
>  <COMPOUND>
COc1ccc(-c2csc(NC(CO)c3nc4ccccc4n3CCCO)n2)cc1 (stereo not given)

>  <DISCRETE_LABEL>
n

$$$$
>  <COMPOUND>
Cc1ccccc1Nc1nc(N)nc(COC(=O)CC2CC3CCC2C3)n1 (stereo not given)

>  <DISCRETE_LABEL>
n

$$$$
>  <COMPOUND>
COc1ccc(C(=O)COC(=O)C(CCSC)NS(=O)(=O)c2ccc(Cl)cc2)cc1 (stereo not given)

>  <DISCRETE_LABEL>
n

$$$$
>  <COMPOUND>
COC(=O)CCCC1=CC2=CC(=O)C(C)(OC(=O)c3cccs3)C(=O)C2=CN1CCCOC(C)C (stereo not given)

>  <DISCRETE_LABEL>
y

$$$$
>  <COMPOUND>
CCC(=O)Nc1nc2nc(-c3ccccc3)cc(-c3ccccc3)n2n1

>  <DISCRETE_LABEL>
n

$$$$
>  <COMPOUND>
COC(=O)c1c(NC(=O)CN(c2ccccc2)S(C)(=O)=O)sc2c1CCCC2

>  <DISCRETE_LABEL>
y

$$$$

Record request — test call for O=C(CSc1nc2ccccc2c(=O)n1-c1ccc(F)cc1F)Nc1ccc2c(c1)CCC2
n

Record request — test call for CCOC(=O)c1ccc2[nH]c(C)c(C)c2c1
n

Record request — test call for C=CCN1C(=O)C2(C(C(=O)OCC)=C(N)Oc3ccccc32)c2c1c1ccccc1oc2=O (stereo not given)
n

Record request — test call for O=C(NCCCN1CCCCCC1)c1ccc(CS(=O)(=O)Cc2ccccc2F)o1
n

Record request — test call for Cc1ccc2cc(CN(c3ccccc3C)S(=O)(=O)c3ccccc3)c(=O)[nH]c2c1
n

Record request — test call for O=C(O/N=C1/CCSc2ccccc21)c1ccccc1
n

Record request — test call for CCCCOc1ccc(C(=O)N/C(=C/C=C/c2ccccc2)C(=O)NCCCO)cc1
n

Record request — test call for Cc1ccccc1-c1cnc(C(O)c2ccc(F)c(F)c2)[nH]1 (stereo not given)
n

Record request — test call for O=[N+]([O-])c1ccc(Cc2ccncc2)cc1
n

Record request — test call for CCN(CCCNC(=O)CNC(=O)c1nn(-c2ccc(OC)cc2OC)c(=O)c2ccccc12)c1cccc(C)c1
n

Record request — test call for Cc1cccc(NC(=O)c2ccc(OCc3c(C)noc3C)cc2)c1
y

Record request — test call for NC1=NC[C@@H](Cc2ccc(O)cc2)N1CCCCC1CCCCC1
n

Record request — test call for CCNC(=O)C1(C)CCCN(C(=O)c2nc(C)oc2C)C1 (stereo not given)
n

Record request — test call for Cc1ccc(C)c(-n2c(SCC(=O)NC(C(=O)O)C(C)C)nnc2-c2cccc(Cl)c2)c1 (stereo not given)
n

Record request — test call for CCNS(=O)(=O)c1ccc(CCC(=O)O)cc1
n

Record request — test call for CCCCn1nnnc1C(c1cc2ccccc2o1)N(C)Cc1ccc(Cl)c(Cl)c1 (stereo not given)
y

Record request — test call for NC(=O)c1c(NC(=O)C(=O)N2CCOCC2)sc2c1CCCC2
n
